Source: ChEMBL document CHEMBL1201862

System: K562
run_description: NCI tumour cell line growth inhibition, 48 h
Calls of active or inactive are those of the source. Rule as the data show it: active = GI50 up to about 1.1 µM and inactive = higher.
assay_readout: GI50

> print(dat)
                                   compound  assay.readout      reported.result
1  C/C=C(\C)C(O)C(C)C(O)C/C=C(C)/C=C(\C)C/C(C)=C/C/C=C(\C)C(O)C(C)c1ccc(CCC)c(=O)o1 (stereo not given)           GI50    0.501 µM (active)
2  CC(=O)OC(Cn1cncn1)(Cn1cncn1)c1ccc(Cl)cc1Cl           GI50  > 100 µM (inactive)
3  [O-][S+](Nc1ccccc1)c1ccc(-c2ccccc2)cc1 (stereo not given)           GI50  > 100 µM (inactive)
4  CCN(CC)/C(Cl)=C(Cl)\C(=C1\Nc2ccc(OC)cc21)[N+](=O)[O-]           GI50   31.7 µM (inactive)

Next up:
Ask: Dear colleague, I am looking for the recorded GI50 of the following compound: `O=C(Nc1ccccc1)Oc1ccc(C(=S)Nc2ccc(Br)cc2)cc1`
Result: 21.5 µM (inactive)

* * *

System: A549
run_description: NCI tumour cell line growth inhibition, 48 h
The source made the active and inactive calls. No stated cut-off is given here; in the data, active = GI50 up to about 1.1 µM and inactive = higher.
Reported GI50 values for a set of molecules

Known results for molecules:
molecule	GI50
CCCCCCCCCCCCCCCCCC(=O)NCC(COP(=O)([O-])OCC[N+](C)(C)C)OC (stereo not given)	10.3 µM (inactive)
NCc1c(C(N)=O)ncn1Cc1ccccc1	> 100 µM (inactive)
O=c1c(C(c2ccc([N+](=O)[O-])cc2)c2c(O)c3ccccc3n(-c3ccccc3)c2=O)c(O)c2ccccc2n1-c1ccccc1	15.5 µM (inactive)

Ask: Dear colleague, I am looking for the recorded GI50 of the following molecule: `CC(=O)Nc1nc(C)c(S(=O)(=O)NC(=O)N2c3ccccc3CCc3ccccc32)s1`
Result: > 100 µM (inactive)

Ask: Dear colleague, I am looking for the recorded GI50 of the following molecule: COC(=O)c1ccc(C)cc1CC1Cc2cc(C)ccc2C1=O (stereo not given)
Result: > 100 µM (inactive)

Ask: Dear colleague, I am looking for the recorded GI50 of the following molecule: `CC(C)N1CC2CC(CN(C(=O)c3ccccc3)C2)C1.[O-][Cl+3]([O-])([O-])O`
Result: > 100 µM (inactive)

* * *

Tested on: UACC-257
run_description: NCI tumour cell line growth inhibition, 48 h
The source made the active and inactive calls. No stated cut-off is given here; in the data, active = GI50 up to about 1.1 µM and inactive = higher.
assay_readout: GI50

Known results for compounds:
> print(dat)
                                   compound      reported.result
1       Cn1c2ccccc2c2[nH]cc3nc4ccccc4c-3c21   22.3 µM (inactive)
2  CC(=O)Nc1ccc(S(=O)(=O)[N-]C2C(=O)c3ccccc3C(=O)C2[n+]2ccccc2)cc1 (stereo not given)   16.1 µM (inactive)
3  Cc1ccc(C)c(NC(=O)C(=O)CC(=O)c2cccc3ccccc23)c1  > 100 µM (inactive)
4  C[C@]12CCC3[C@@H](CC[C@@H]4c5nonc5CC[C@]34C)C1CCC(=O)N2 (stereo not given in full)  > 100 µM (inactive)

Next up:
Ask: Dear colleague, I am looking for the recorded GI50 of the following compound: `COc1cc(/C=C/C(=O)c2sc(Nc3ccccc3)nc2C)ccc1O`
Result: > 100 µM (inactive)

* * *

System: IGROV-1
run_description: NCI tumour cell line growth inhibition, 48 h
Calls of active or inactive are those of the source. Cut-off read from the data, not from the text of the source: active = GI50 up to about 1.1 µM and inactive = higher.
Classes to choose from: active, inactive

Reference set (3 entries):
chem_smiles	subject_of_test	discrete_label
O=C(CC(=O)N(C(=O)c1ccccc1)c1ccc(Cl)cc1)N/N=C\c1cc(/N=N/c2ccccc2Cl)ccc1O	IGROV-1	inactive
Nc1ccccc1C(=O)NNC(=O)c1ccccc1N	IGROV-1	inactive
CCN(C(C)=N)c1ccccc1	IGROV-1	inactive

# ---- query molecule ----
Ask: // param item: `CC(=O)O[C@H]1C(=O)[C@@]2(C)[C@H]([C@H](OC(=O)c3ccccc3)[C@]3(O)C[C@H](OC(=O)[C@H](O)[C@@H](NC(=O)c4ccco4)c4ccccc4)C(C)=C1C3(C)C)[C@]1(OC(C)=O)CO[C@@H]1C[C@@H]2O` ; yields the recorded call
Result: active

* * *

Reported GI50 values for a set of compounds
Test system: SF-268
run_description: NCI tumour cell line growth inhibition, 48 h
Active and inactive are the calls of the source. No stated cut-off is given here; in the data, active = GI50 up to about 1.1 µM and inactive = higher.

compound	GI50
CN(C)CCN1C(=O)c2cccc3cc(N)cc(c23)C1=O [AMONAFIDE]	5.46 µM (inactive)
O=C(NN1C(=O)CS(=O)(=O)C1c1cccc(F)c1)c1ccncc1 (centres undefined)	> 100 µM (inactive)

Ask: Which GI50 is reported with SF-268 for this entry: `CC1=C(C(=O)Nc2cc(F)c(F)cc2F)C(c2ccc3c(c2)OCO3)C(C(=O)Nc2cc(F)c(F)cc2F)=C(C)N1` ?
Result: 23.3 µM (inactive)

Ask: Which GI50 is reported with SF-268 for this entry: O=c1n(CC2CO2)c2ccccc2n1CC1CS1 (centres undefined) ?
Result: 91.8 µM (inactive)

Ask: Which GI50 is reported with SF-268 for this entry: `CCC1=NC(C(F)(F)F)(C(F)(F)F)N=C(N2CCOCC2)O1` ?
Result: > 100 µM (inactive)

Ask: Which GI50 is reported with SF-268 for this entry: `CCc1n[nH]c(=O)[nH]1` ?
Result: > 100 µM (inactive)

Ask: Which GI50 is reported with SF-268 for this entry: `COc1ccc2c3c1O[C@H](c1ccc(O)cc1)[C@H]3[N+](C)(C)CC2` ?
Result: > 100 µM (inactive)

Ask: Which GI50 is reported with SF-268 for this entry: O=C(c1cccnc1)N1N=C(c2ccc3c(c2)OCO3)CC1(O)c1cc(F)c(Cl)cc1Cl (centres undefined) ?
Result: 19.9 µM (inactive)

Ask: Which GI50 is reported with SF-268 for this entry: COc1ccc(-c2cc(=O)c3c(OC)c(OC)c(OC)c(OC)c3o2)cc1 [TANGERETIN] ?
Result: > 100 µM (inactive)

Ask: Which GI50 is reported with SF-268 for this entry: `CCOC(=O)N[C@H]1CCc2cc(OC)c(OC)c(OC)c2-c2ccc(SC)c(=O)cc21` ?
Result: < 0.01 µM (active)

Ask: Which GI50 is reported with SF-268 for this entry: COc1ccc(S(=O)(=O)n2c3c(c4ccccc42)[C@@H]2[C@@H](CCCN2C(=O)C[S+]([O-])c2ccc(C)cc2)[C@H](Cl)C3)cc1 (some centres undefined) ?
Result: > 100 µM (inactive)

Ask: Which GI50 is reported with SF-268 for this entry: `NS(=O)(=O)c1ccc(/N=N/c2ncccc2O)cc1` ?
Result: > 100 µM (inactive)

Ask: Which GI50 is reported with SF-268 for this entry: COc1cc2c(cc1O)C(C)Cc1cc3c(cc1N(C)CC2)OCO3 (centres undefined) ?
Result: 5.3 µM (inactive)

Ask: Which GI50 is reported with SF-268 for this entry: CC(NC(=O)C(=O)N/N=C1\C[C@@H](c2ccccc2)Nc2ccccc21)c1ccccc1 (some centres undefined) ?
Result: 94.6 µM (inactive)

Ask: Which GI50 is reported with SF-268 for this entry: `NC1=NNC2(C(N)=N1)c1ccccc1-c1ccccc12` ?
Result: > 10 µM (inactive)

Ask: Which GI50 is reported with SF-268 for this entry: C[C@@H]1CC(=O)C2CCCC1C2=O (some centres undefined) ?
Result: > 100 µM (inactive)

Ask: Which GI50 is reported with SF-268 for this entry: `CN(C)c1ccc(/C(F)=C(F)/C(F)=C(F)/C(F)=C(\F)c2ccc(Br)cc2)cc1` ?
Result: 51.8 µM (inactive)

Ask: Which GI50 is reported with SF-268 for this entry: CC1CC[C@@]2(OC1)OC1C[C@H]3[C@@H]4CC=C5CC(OC6OC(CO)C(OC7OC(CO)C(O)C(OC8OCC(O)C(O)C8O)C7OC7OC(CO)C(O)C(O)C7O)C(O)C6O)CCC5(C)[C@H]4CCC3(C)C1[C@@H]2C (some centres undefined) ?
Result: 4.84 µM (inactive)

Ask: Which GI50 is reported with SF-268 for this entry: `CNS(=O)(=O)NNS(=O)(=O)c1ccc(F)cc1` ?
Result: > 100 µM (inactive)

* * *

Tested on: M14
run_description: NCI tumour cell line growth inhibition, 48 h
Active and inactive are the calls of the source. Rule as the data show it: active = GI50 up to about 1.1 µM and inactive = higher.
Reported GI50 values for a set of compounds

Known results for compounds:
> print(dat)
                              compound      reported.result
1    S=C1ON=C(c2ccccc2)/C1=C/Nc1ccccc1  > 100 µM (inactive)
2  COC(=O)/C=C1/OC(c2ccc(C)cc2C)=CC1=O   15.6 µM (inactive)
3               CNC(C)(C)Cc1ccc(Cl)cc1  > 100 µM (inactive)

Ask: Dear colleague, I am looking for the recorded GI50 of the following compound: `COc1ccc2c(c1)SC1=Nc3sc4cc(OC)ccc4[n+]3CN12`
Result: 33.1 µM (inactive)

Ask: Dear colleague, I am looking for the recorded GI50 of the following compound: CN1CCCCC1CCN1CCCCC1 (configuration not stated)
Result: > 100 µM (inactive)

Ask: Dear colleague, I am looking for the recorded GI50 of the following compound: `c1ccc2c(NCCCCCCNc3c4ccccc4nc4ccccc34)c3ccccc3nc2c1`
Result: 1.23 µM (inactive)

Ask: Dear colleague, I am looking for the recorded GI50 of the following compound: CCOC(=O)Nc1cc(NC(/C=N/NC(C)=O)C(=O)OCC)c(OC)cc1NC(C)=O (configuration not stated)
Result: > 100 µM (inactive)

Ask: Dear colleague, I am looking for the recorded GI50 of the following compound: `Cc1ccc(S(=O)(=O)N2CCCSCCSCCCSCC2)cc1`
Result: > 100 µM (inactive)

Ask: Dear colleague, I am looking for the recorded GI50 of the following compound: `Cc1cc(=O)oc2cc(O)c(CN(C)CC(=O)O)cc12`
Result: > 100 µM (inactive)

Ask: Dear colleague, I am looking for the recorded GI50 of the following compound: `CCC(=O)OC[n+]1ccc2c(C)c3[nH]c4ccc(OC)cc4c3c(C)c2c1`
Result: 0.333 µM (active)

Ask: Dear colleague, I am looking for the recorded GI50 of the following compound: `CCc1n[nH]c(=O)[nH]1`
Result: > 100 µM (inactive)

Ask: Dear colleague, I am looking for the recorded GI50 of the following compound: `Cc1cc(N(CCC#N)S(=O)(=O)c2ccccc2)ccc1C=O`
Result: > 100 µM (inactive)
